Test: growth inhibition of GSK3B-pretreated HCT116 cells – cell-based, CellTiter-Glo, 0.2 to 20 µM (AID 1117336)
Conditions: HCT116 viability after GSK3B inhibitor, at 20 µM, hits give high values
Positions of bridges follow the written chain, without caps; N, C: chain ends. Non-standard residues stand in square brackets, D forms with d. Residues, ends and D or L forms follow the SMILES beside them. hArg = N=C(N)NCCCC[C@H](N)C(=O)O; Mpa = O=C(O)CCS
RECORDED_ENDPOINT: viability decrease (%)

{"COMPOUND": "Cn1c(=O)c2[nH]c(Br)nc2n(C)c1=O", "UNIT_INFO": "%", "OBSERVED_MEASUREMENT": 2.55}
{"COMPOUND": "NS(=O)(=O)c1cc2c(cc1C(F)(F)F)NCNS2(=O)=O", "UNIT_INFO": "%", "OBSERVED_MEASUREMENT": -8.5}
{"COMPOUND": "COc1ccc2c(c1)CCCC2=O", "UNIT_INFO": "%", "OBSERVED_MEASUREMENT": 5.2}
{"COMPOUND": "Oc1ccc(Cl)cc1Sc1cc(Cl)ccc1O", "UNIT_INFO": "%", "OBSERVED_MEASUREMENT": 100}
{"COMPOUND": "CC(NC(CCc1ccccc1)C(=O)O)C(=O)N1C(=O)N(C)CC1C(=O)O (stereo unspecified)", "UNIT_INFO": "%", "OBSERVED_MEASUREMENT": -39.7}
{"COMPOUND": "CCNC(=O)NCCCOc1cccc(CN2CCCCC2)c1", "UNIT_INFO": "%", "OBSERVED_MEASUREMENT": 1.2}
{"COMPOUND": "C[N+]1(CC2COC(c3ccccc3)(C3CCCCC3)O2)CCCCC1 (stereo unspecified)", "UNIT_INFO": "%", "OBSERVED_MEASUREMENT": -13.4}
{"COMPOUND": "N[C@H](C(=O)O)c1ccc(O)cc1", "UNIT_INFO": "%", "OBSERVED_MEASUREMENT": -0.7}
{"COMPOUND": "NC(=O)[C@@H]1CSSCCC(=O)N[C@@H](CCCCN=C(N)N)C(=O)NCC(=O)N[C@@H](CC(=O)O)C(=O)N[C@@H](Cc2c[nH]c3ccccc23)C(=O)N2CCC[C@H]2C(=O)N1 ([Mpa][hArg]GDWPC-NH2; disulfide 1-7)", "UNIT_INFO": "%", "OBSERVED_MEASUREMENT": 19.6}
{"COMPOUND": "CS(=O)(=O)c1ccc(-c2cn3ccccc3n2)cc1", "UNIT_INFO": "%", "OBSERVED_MEASUREMENT": 18.1}
{"COMPOUND": "Nc1ccc(O)cc1", "UNIT_INFO": "%", "OBSERVED_MEASUREMENT": 99.1}
